target: pooled human IgG (human IgG1, 2, 3 and 4)
readout kind: Enzyme Activity Endpoint Assay (purified): IgG (ng/µL)
Numeric answer only, unit ng/µL assumed.

Which Enzyme Activity Endpoint Assay (purified): IgG value belongs to PRT-684 (protein) MQITSVWTKGVTPLTPEQFTNNNEDVIHAPYLANQGWYDITKTFNGKDNLLCGAATAGNMLHWWFDQNKEEIEAYLKKHPEKQKIIFNNQELFDLKKAIDTKDSQTNSALFNYFRDKAFPNLSARQLGVMPDLVLDMFINGYYLNVFKTQSTDVNRPYQTKDKRGGIFDAVFTRGDQTTLLTARHDLKNKGLNEISDIIKQELTEGKALALSHTYANVSISHVINLWGADFNAEGNLIAIYVTDSDANASIGMKKYFVGVNSHGKVAISAKKIEGENIGAQVLGLFTLSSGQDIWQKLSLEHHHHHH ?
0

Provenance of the data: patent US20250027068
